All values here come from paper PMC12133982.

Target: HLA-C0801 (Homo sapiens, UniProt P10321, A176T/A330V/A97T/C350S/D114A/D138N/D33Y/E201K/E299G/L171W/L218V/M285V/M309V/M331V/P208H/Q277E/Q291P/R59Q/S123Y/S140F/S297R/S48A/T329A/T363A/V319A/V328M)
Assay Summary: Competitive peptide binding assay, CIR-C0801
Protocol Conditions: HMy2.CIR-C0801 cells, reference Cy5-[…], class from inhibition at 5 and 15 μM, flow cytometry MFI; read-out: Binding affinity with HLA-C0801
pIC50: −log10 of the molar value. Peptide text beside a SMILES is read from it.

Compound: CC(C)C[C@H](NC(=O)[C@@H](NC(=O)[C@@H](NC(=O)CNC(=O)[C@H](CCC(N)=O)NC(=O)[C@@H]1CCCN1C(=O)[C@H](CC(C)C)NC(=O)[C@H](CCC(N)=O)NC(=O)[C@H](CC(C)C)NC(=O)[C@@H](N)C(C)C)[C@@H](C)O)[C@@H](C)O)C(=O)O [Epitope M18] (H-VLQLPQGTTL-OH; N-terminus and C-terminus assumed)
pIC50: < 4.82
--
Compound: CC(C)C[C@H](NC(=O)[C@@H](NC(=O)[C@H](CCCNC(=N)N)NC(=O)[C@H](CO)NC(=O)[C@@H](NC(=O)[C@H](C)NC(=O)[C@@H](N)C(C)C)[C@@H](C)O)[C@@H](C)O)C(=O)N[C@@H](CO)C(=O)N[C@@H](Cc1ccc(O)cc1)C(=O)O [Epitope M72] (H-VATSRTLSY-OH; N-terminus and C-terminus assumed)
pIC50: > 5.30
--
Compound: CC(C)[C@H](NC(=O)[C@@H](NC(=O)[C@H](Cc1ccccc1)NC(=O)[C@@H]1CCCN1C(=O)[C@@H](NC(=O)CNC(=O)[C@H](CC(=O)O)NC(=O)[C@@H](NC(=O)[C@@H](N)Cc1ccccc1)C(C)C)C(C)C)C(C)C)C(=O)O [Epitope M96] (H-FVDGVPFVV-OH; N-terminus and C-terminus assumed)
pIC50: > 5.30
--
Compound: CC(C)[C@H](NC(=O)CNC(=O)[C@H](Cc1c[nH]cn1)NC(=O)[C@@H]1CCCN1C(=O)[C@H](C)NC(=O)[C@H](CO)NC(=O)[C@@H](N)CCC(N)=O)C(=O)N[C@H](C(=O)N[C@@H](Cc1ccccc1)C(=O)O)C(C)C [Epitope M69] (H-QSAPHGVVF-OH; N-terminus and C-terminus assumed)
pIC50: < 4.82
--
Compound: CSCC[C@H](NC(=O)[C@H](CO)NC(=O)[C@H](CCC(N)=O)NC(=O)[C@H](CCC(N)=O)NC(=O)[C@H](CC(C)C)NC(=O)[C@H](CCC(N)=O)NC(=O)[C@H](CCCCN)NC(=O)[C@H](CO)NC(=O)[C@@H](N)Cc1ccccc1)C(=O)O [Epitope M14] (H-FSKQLQQSM-OH; N-terminus and C-terminus assumed)
pIC50: < 4.82
--
Compound: CSCC[C@H](NC(=O)[C@H](C)NC(=O)[C@@H](N)Cc1ccccc1)C(=O)N[C@@H](CCC(N)=O)C(=O)N[C@@H](CCSC)C(=O)N[C@@H](C)C(=O)N[C@@H](Cc1ccc(O)cc1)C(=O)N[C@@H](CCCNC(=N)N)C(=O)N[C@@H](Cc1ccccc1)C(=O)O [Epitope M63]
pIC50: < 4.82
